// provenance: PubChem BioAssay AID1963983

tested on: 186277-243-T-J2-PDC multi-cell spheroid viability; assay: Anticancer human tumor 186277-243-T-J2-PDC patient-derived colon adenocarcinoma cell line growth inhibition [PI3K]; settings: second compound 0.316 µM; first compound 0.01 µM; stronger effect = lower value
Measured Attribute: viability, T/C (%)

INSERT INTO measurements (compound, measured_attribute, uom, result_number) VALUES
  ('CCN1CCN(Cc2ccc(Nc3ncc(F)c(-c4cc(F)c5nc(C)n(C(C)C)c5c4)n3)nc2)CC1 + CC(Nc1ncnc2nc[nH]c12)c1cc2cccc(Cl)c2c(=O)n1-c1ccccc1', 'viability, T/C', '%', 97.6),
  ('CC(=O)c1c(C)c2cnc(Nc3ccc(N4CCNCC4)cn3)nc2n(C2CCCC2)c1=O + COc1c(OCCCN2CCOCC2)ccc2c3n(c(=NC(=O)c4cnc(N)nc4)nc12)CCN3', 'viability, T/C', '%', 4.53),
  ('CC(C)n1nc(-c2ccc3oc(N)nc3c2)c2c(N)ncnc21 + CC(Nc1ncnc2nc[nH]c12)c1cc2cccc(Cl)c2c(=O)n1-c1ccccc1', 'viability, T/C', '%', 103),
  ('CC(C)n1nc(-c2ccc3oc(N)nc3c2)c2c(N)ncnc21 + COc1c(OCCCN2CCOCC2)ccc2c3n(c(=NC(=O)c4cnc(N)nc4)nc12)CCN3', 'viability, T/C', '%', 4.69),
  ('CC(=O)c1c(C)c2cnc(Nc3ccc(N4CCNCC4)cn3)nc2n(C2CCCC2)c1=O + Cc1nc(NC(=O)N2CCCC2C(N)=O)sc1-c1ccnc(C(C)(C)C(F)(F)F)c1', 'viability, T/C', '%', 101),
  ('CC(C)n1nc(-c2ccc3oc(N)nc3c2)c2c(N)ncnc21 + Cc1nc(NC(=O)N2CCCC2C(N)=O)sc1-c1ccnc(C(C)(C)C(F)(F)F)c1', 'viability, T/C', '%', 82.4),
  ('Cn1ncnc1[C@H]1c2n[nH]c(=O)c3cc(F)cc(c23)N[C@@H]1c1ccc(F)cc1 + Cc1nc(NC(=O)N2CCCC2C(N)=O)sc1-c1ccnc(C(C)(C)C(F)(F)F)c1', 'viability, T/C', '%', 107),
  ('Cn1ncnc1[C@H]1c2n[nH]c(=O)c3cc(F)cc(c23)N[C@@H]1c1ccc(F)cc1 + CC(Nc1ccc2c(c1)OCCn1cc(N3C(=O)OCC3C(F)F)nc1-2)C(N)=O', 'viability, T/C', '%', 64.8),
  ('CCN1CCN(Cc2ccc(Nc3ncc(F)c(-c4cc(F)c5nc(C)n(C(C)C)c5c4)n3)nc2)CC1 + Cc1nc(NC(=O)N2CCCC2C(N)=O)sc1-c1ccnc(C(C)(C)C(F)(F)F)c1', 'viability, T/C', '%', 114),
  ('Cn1ncnc1[C@H]1c2n[nH]c(=O)c3cc(F)cc(c23)N[C@@H]1c1ccc(F)cc1 + COc1c(OCCCN2CCOCC2)ccc2c3n(c(=NC(=O)c4cnc(N)nc4)nc12)CCN3', 'viability, T/C', '%', 6.2),
  ('Cn1ncnc1[C@H]1c2n[nH]c(=O)c3cc(F)cc(c23)N[C@@H]1c1ccc(F)cc1 + CC(Nc1ncnc2nc[nH]c12)c1cc2cccc(Cl)c2c(=O)n1-c1ccccc1', 'viability, T/C', '%', 92.5),
  ('CC(=O)c1c(C)c2cnc(Nc3ccc(N4CCNCC4)cn3)nc2n(C2CCCC2)c1=O + CC(Nc1ncnc2nc[nH]c12)c1cc2cccc(Cl)c2c(=O)n1-c1ccccc1', 'viability, T/C', '%', 107);

* * *

tested on: 186277-243-T-J2-PDC multi-cell spheroid viability; assay: Anticancer human tumor 186277-243-T-J2-PDC cell line growth inhibition [PI3K]; conditions: second compound 0.0316 µM; first compound 1 µM; stronger effect = lower value;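 also: spheroids exposed to compounds for seven days before viability reading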;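 as to viability, T/C: 100% = DMSO vehicle control viability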
Below, each entry is listed alongside its reported viability, T/C.
Measured Attribute: viability, T/C (%)

INSERT INTO assay_data (compound, result_number) VALUES
  ('C=CC(=O)N1CCN(c2nc(=O)n(-c3c(C)ccnc3C(C)C)c3nc(-c4c(O)cccc4F)c(F)cc23)C(C)C1 (stereo unspecified) + Cc1nc(NC(=O)N2CCCC2C(N)=O)sc1-c1ccnc(C(C)(C)C(F)(F)F)c1', 88.1),
  ('Cn1nccc1Nc1nccc(-c2ccn(C(CO)c3ccc(Cl)c(F)c3)c(=O)c2)n1 (stereo unspecified) + CC(Nc1ccc2c(c1)OCCn1cc(N3C(=O)OCC3C(F)F)nc1-2)C(N)=O', 61.1),
  ('C[C@@H](NC(=O)c1ncnc(N)c1Cl)c1ncc(C(=O)Nc2cc(C(F)(F)F)c(Cl)cn2)s1 + CC(Nc1ncnc2nc[nH]c12)c1cc2cccc(Cl)c2c(=O)n1-c1ccccc1', 83.4),
  ('Cn1nccc1Nc1nccc(-c2ccn(C(CO)c3ccc(Cl)c(F)c3)c(=O)c2)n1 (stereo unspecified) + COc1c(OCCCN2CCOCC2)ccc2c3n(c(=NC(=O)c4cnc(N)nc4)nc12)CCN3', 10.2),
  ('CC1(C)CCC(Nc2ncc(C(F)(F)F)c(-c3c[nH]c4c(P(C)(C)=O)c(C#N)ccc34)n2)CN1 (stereo unspecified) + CC(Nc1ccc2c(c1)OCCn1cc(N3C(=O)OCC3C(F)F)nc1-2)C(N)=O', 57.8),
  ('Cn1ncc(Cl)c1-c1cc(C(=O)NC(CN)Cc2cccc(F)c2)sc1Cl (stereo unspecified) + CC(Nc1ncnc2nc[nH]c12)c1cc2cccc(Cl)c2c(=O)n1-c1ccccc1', 56.8),
  ('CCN1CCN(Cc2ccc(Nc3ncc(F)c(-c4cc(F)c5nc(C)n(C(C)C)c5c4)n3)nc2)CC1 + CC(Nc1ccc2c(c1)OCCn1cc(N3C(=O)OCC3C(F)F)nc1-2)C(N)=O', 103),
  ('CCCS(=O)(=O)Nc1ccc(F)c(C(=O)c2c[nH]c3ncc(-c4ccc(Cl)cc4)cc23)c1F + CC(Nc1ccc2c(c1)OCCn1cc(N3C(=O)OCC3C(F)F)nc1-2)C(N)=O', 95.6),
  ('CC(C)NCC(C(=O)N1CCN(c2ncnc3c2C(C)CC3O)CC1)c1ccc(Cl)cc1 (stereo unspecified) + Cc1nc(NC(=O)N2CCCC2C(N)=O)sc1-c1ccnc(C(C)(C)C(F)(F)F)c1', 54.1),
  ('CC(Cn1ccc(-c2ccc(C#N)c(Cl)c2)n1)NC(=O)c1cc(C(C)O)[nH]n1 (stereo unspecified) + CC(Nc1ncnc2nc[nH]c12)c1cc2cccc(Cl)c2c(=O)n1-c1ccccc1', 90.2),
  ('CC(C)NCC(C(=O)N1CCN(c2ncnc3c2C(C)CC3O)CC1)c1ccc(Cl)cc1 (stereo unspecified) + CC(Nc1ncnc2nc[nH]c12)c1cc2cccc(Cl)c2c(=O)n1-c1ccccc1', 60.4);

* * *

Below, each entry is listed alongside its reported IC50.
test system: 186277-243-T-J2-PDC multi-cell spheroid viability; assay: Anticancer human tumor 186277-243-T-J2-PDC cell line growth inhibition [PI3K]; conditions: curve of first compound; second compound 0.0316 µM;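 also: spheroids exposed to compounds for seven days before viability reading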
Measured Attribute: IC50

INSERT INTO assay_data (compound, result) VALUES
  ('C#Cc1c(F)ccc2cc(O)cc(-c3ncc4c(N5CC6CCC(C5)N6)nc(OCC56CCCN5CC(F)C6)nc4c3F)c12 (stereo not drawn) + CC(Nc1ccc2c(c1)OCCn1cc(N3C(=O)OCC3C(F)F)nc1-2)C(N)=O', '< 0.0316 µM'),
  ('C=CC(=O)N1CCN(c2nc(=O)n(-c3c(C)ccnc3C(C)C)c3nc(-c4c(O)cccc4F)c(F)cc23)C(C)C1 (stereo not drawn) + CC(Nc1ncnc2nc[nH]c12)c1cc2cccc(Cl)c2c(=O)n1-c1ccccc1', '> 10 µM'),
  ('C[C@@H](NC(=O)c1ncnc(N)c1Cl)c1ncc(C(=O)Nc2cc(C(F)(F)F)c(Cl)cn2)s1 + Cc1nc(NC(=O)N2CCCC2C(N)=O)sc1-c1ccnc(C(C)(C)C(F)(F)F)c1', '> 10 µM'),
  ('CCN1CCN(Cc2ccc(Nc3ncc(F)c(-c4cc(F)c5nc(C)n(C(C)C)c5c4)n3)nc2)CC1 + CC(Nc1ccc2c(c1)OCCn1cc(N3C(=O)OCC3C(F)F)nc1-2)C(N)=O', '> 1 µM'),
  ('CNC(=O)c1ccc(N2C(=S)N(c3ccc(C#N)c(C(F)(F)F)c3)C(=O)C2(C)C)cc1F + CC(Nc1ccc2c(c1)OCCn1cc(N3C(=O)OCC3C(F)F)nc1-2)C(N)=O', '> 10 µM'),
  ('Cn1nccc1Nc1nccc(-c2ccn(C(CO)c3ccc(Cl)c(F)c3)c(=O)c2)n1 (stereo not drawn) + COc1c(OCCCN2CCOCC2)ccc2c3n(c(=NC(=O)c4cnc(N)nc4)nc12)CCN3', '< 0.0316 µM'),
  ('CNC(=O)c1ccc(N2C(=S)N(c3ccc(C#N)c(C(F)(F)F)c3)C(=O)C2(C)C)cc1F + Cc1nc(NC(=O)N2CCCC2C(N)=O)sc1-c1ccnc(C(C)(C)C(F)(F)F)c1', '> 10 µM'),
  ('CC(Cn1ccc(-c2ccc(C#N)c(Cl)c2)n1)NC(=O)c1cc(C(C)O)[nH]n1 (stereo not drawn) + CC(Nc1ccc2c(c1)OCCn1cc(N3C(=O)OCC3C(F)F)nc1-2)C(N)=O', '> 10 µM');
